src = patent US6569878B1

Biological target: CDK2/cyclin A (Homo sapiens, UniProt P24941)
Construct: made in house; host or cells: CDK2: insect cells (baculovirus); cyclin A: E. coli, then limited proteolysis
Assay: Inhibition of CDK2/cyclin A retinoblastoma kinase activity
Type: biochemical
Conditions: read-out: Ki CDK 2/A
ASSAY READOUT: Ki (nM)

INPUT: Request the reported Ki associated with Nc1nc(Nc2ccc(S(N)(=O)=O)cc2)sc1C(=O)c1c(F)cccc1F
OUTPUT: 5.7

INPUT: # iterate: Nc1nc(Nc2ccc(N3CCN(c4ccncc4)CC3)cc2)sc1C(=O)c1c(F)cccc1F
OUTPUT: 215

INPUT: Another compound to check: CN1CCN(c2ccc(Nc3nc(N)c(C(=O)c4c(Cl)cc(C(F)(F)F)cc4Cl)s3)cc2)CC1
OUTPUT: 872

INPUT: Repeat for the following compound: Nc1nc(NCCc2ccccc2)sc1C(=O)c1ccccc1[N+](=O)[O-]
OUTPUT: 780

INPUT: // query: CCOC(=O)c1ccc(Nc2nc(N)c(C(=O)c3c(Cl)cccc3Cl)s2)cc1
OUTPUT: 1020

INPUT: Can you handle Nc1nc(Nc2ccccc2)sc1C(=O)c1cccc([N+](=O)[O-])c1 next?
OUTPUT: 1200

1: COc1ccc(C(=O)c2sc(Nc3ccc(S(N)(=O)=O)cc3)nc2N)c(OC)c1
2: Cc1c(C(=O)c2sc(Nc3ccc4nc[nH]c4c3)nc2N)sc2ccccc12
3: Nc1nc(Nc2ccc3nc[nH]c3c2)sc1C(=O)c1cc(Cl)sc1Cl
INPUT: Arrange the 3 entries by Ki so the values rise. Lab note: final answer is the ordered label list.
OUTPUT: 1, 2, 3
(1: 20 nM, 2: 389 nM, 3: 1040 nM)
